Test system: HCC1569;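 note: TDF denotes transformed human dermal fibroblasts of mesenchymal origin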
Assay: cell number relative to DMSO (% of DMSO); higher = more cells (less growth inhibition / toxicity)
Conditions: concentration: 10 µM; 24 h
ASSAY ENDPOINT: cell number
Lab note: jot the number down without any unit.

# input Query (compound): CCOC(=O)C(CCc1ccccc1)NC(C)C(=O)N1C(C(=O)O)CC2CCCC21 (stereo not drawn) ; field requested: cell number
# output 105

# input # repeat for `O=C1c2ccccc2-n2c1nc1ccccc1c2=O`
# output 96.9

# input # repeat for CN(Cc1cnc2nc(N)nc(N)c2n1)c1ccc(C(=O)NC(CCC(=O)O)C(=O)O)cc1 (stereo not drawn) [Methotrexate]
# output 81.7

New cases:
# input Query (compound): `CCOc1nc2cccc(C(=O)O)c2n1Cc1ccc(-c2ccccc2-c2nn[nH]n2)cc1` ; field requested: cell number
# output 104

# input # repeat for O=C1CC(c2ccc(O)c(O)c2)Oc2cc(OC3OC(CO)C(O)C(O)C3O)cc(O)c21 (stereo not drawn) [Eriodictyol-7-O-glucoside]
# output 101

# input # repeat for CCCCCC=CC=CC(O)CCCCCCCC(=O)O (racemic)
# output 103

# input # repeat for Cl.NC1C=CC=C(C(=O)O)C1 (stereo not drawn) [Gabaculine hydrochloride]
# output 103

# input # repeat for COC1C(OC(=O)C=CC=CC=CC=CC(=O)O)CCC2(CO2)C1C1(C)OC1CC=C(C)C (stereo not drawn)
# output 104

# input # repeat for `CCCCCCCCCCC(=O)O`
# output 104

# input # repeat for `COc1cc(-c2ccc(=O)[nH]n2)ccc1OC(F)F`
# output 106

# input # repeat for CC(=O)SCC(Cc1ccccc1)C(=O)NCC(=O)OCc1ccccc1 (stereo not drawn)
# output 103

# input # repeat for CCCCCCCCC=CCCCCCCCCCC(=O)O [11(Z)-Eicosenoic acid]
# output 105

# input # repeat for Cc1ccc(S(=O)(=O)N2c3ccccc3Oc3ccccc32)cc1 [10-[(4-methylphenyl)sulfonyl]-10H-phenoxazine]
# output 53.5
